Biological target: T1, full-length beta-Catenin (Uniprot ID P35222) (Homo sapiens (Human), UniProt P35222 2-781)
T1 construct: The AlphaScreen assay used a Histidine (Nickel Chelate) detection kit, so a His tag is likely, but no tag is described; also called B-Catenin; bCat
T1 sequence: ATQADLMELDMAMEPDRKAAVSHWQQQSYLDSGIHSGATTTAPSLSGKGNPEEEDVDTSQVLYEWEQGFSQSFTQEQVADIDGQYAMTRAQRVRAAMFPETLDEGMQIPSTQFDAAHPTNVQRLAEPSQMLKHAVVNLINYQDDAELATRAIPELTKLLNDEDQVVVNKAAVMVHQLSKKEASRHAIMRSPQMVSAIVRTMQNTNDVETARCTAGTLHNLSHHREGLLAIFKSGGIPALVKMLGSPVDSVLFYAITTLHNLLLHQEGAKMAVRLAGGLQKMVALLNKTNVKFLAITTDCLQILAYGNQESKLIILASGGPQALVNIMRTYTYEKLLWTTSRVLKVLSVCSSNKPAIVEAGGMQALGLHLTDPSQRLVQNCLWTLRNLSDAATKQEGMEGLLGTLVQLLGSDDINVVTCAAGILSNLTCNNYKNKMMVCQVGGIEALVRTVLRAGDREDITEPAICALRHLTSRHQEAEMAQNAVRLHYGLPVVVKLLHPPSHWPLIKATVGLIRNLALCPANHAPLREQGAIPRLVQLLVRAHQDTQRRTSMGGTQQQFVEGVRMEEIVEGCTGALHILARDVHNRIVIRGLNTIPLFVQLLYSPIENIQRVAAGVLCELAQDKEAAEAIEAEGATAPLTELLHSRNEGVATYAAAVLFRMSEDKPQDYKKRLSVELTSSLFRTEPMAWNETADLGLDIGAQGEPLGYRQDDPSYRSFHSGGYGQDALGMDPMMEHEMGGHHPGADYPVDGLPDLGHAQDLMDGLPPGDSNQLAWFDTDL
Assay: fluorescence polarization competition: full-length beta-catenin + 5FAM-TCF4(10-53) probe, peptide titrated
Starred links: 1 amine or outer side, 2 acyl side, 3 side chain; linkers in the order of their positions; H or OH if unused. Positions of bridges follow the written chain, without caps; N, C: chain ends. Non-standard residues stand in square brackets, D forms with d. Primed or numbered codes have the meaning given here. B5(4) = 2,2-bis(4-pentenyl)glycine = 2-amino-2-(pent-4-en-1-yl)hept-6-enoic acid (stitching residue), C=CCCCC(CCCC=C)(N[*:1])C(=O)[*:2]; Phe(3,5-F2) = N[C@@H](Cc1cc(F)cc(F)c1)C(=O)O; αAllylPro = C=CC[C@@]1(C(=O)O)CCCN1; S8 = C=CCCCCCC[C@](C)(N)C(=O)O
Property name: EC50

Looking up Ac-[αAllylPro]DA[B5(4)]DEAAXV[S8]FWQ-NH2 (staple 1-4, 4-11; not fully specified (residue 9); printed as Ac-PL3-Asp-Ala-B5-Asp-Glu-Ala-Ala-MeTyr-Val-S8-Phe-Trp-Gln-NH2, Stapled peptide composition; also called Ac-PL3-Asp-Ala-B5-Asp-Glu-Ala-Ala-MeTyr-Val-S8-Phe-Trp-Gln-NH2) [I-217] , I found its EC50 recorded as 1960 nM

Looking up Ac-[αAllylPro]DA[B5(4)]DEAAXV[S8]FWQ-NH2 (staple 1-4, 4-11; not fully specified (residue 9); printed as Ac-PL3-Asp-Ala-B5-Asp-Glu-Ala-Ala-MeTyr-Val-S8-Phe-Trp-Gln-NH2, Stapled peptide composition; also called Ac-PL3-Asp-Ala-B5-Asp-Glu-Ala-Ala-MeTyr-Val-S8-Phe-Trp-Gln-NH2) [I-218] , I found its EC50 recorded as 1960 nM

Looking up Ac-[αAllylPro]DA[B5(4)]DEAA[Phe(3,5-F2)]V[S8]FWQ-NH2 (staple 1-4, 4-11, Stapled peptide composition; also called Ac-PL3-Asp-Ala-B5-Asp-Glu-Ala-Ala-35FF-Val-S8-Phe-Trp-Gln-NH2) [I-219] , I found its EC50 recorded as 2860 nM

Looking up Ac-[αAllylPro]DA[B5(4)]DEAA[Phe(3,5-F2)]V[S8]FWQ-NH2 (staple 1-4, 4-11, Stapled peptide composition; also called Ac-PL3-Asp-Ala-B5-Asp-Glu-Ala-Ala-35FF-Val-S8-Phe-Trp-Gln-NH2) [I-220] , I found its EC50 recorded as 2860 nM

Looking up XDAXDDAAFVXFWQ (not fully specified; N-terminal Ac; C-terminal NH2; PL3 at 1, B5 at 4, S8 at 11 (staples 1-4 and 4-11 by olefin metathesis); 4F3MeF at 12, Stapled peptide composition; also called Ac-PL3-Asp-Ala-B5-Asp-Asp-Ala-Ala-Phe-Val-S8-4F3MeF-Trp-Gln-NH2) [I-254] , I found its EC50 recorded as 5000 nM
